# study_target: T1, Pum-HD (Drosophila melanogaster, UniProt P25822 1093-1426)
# T1 sequence: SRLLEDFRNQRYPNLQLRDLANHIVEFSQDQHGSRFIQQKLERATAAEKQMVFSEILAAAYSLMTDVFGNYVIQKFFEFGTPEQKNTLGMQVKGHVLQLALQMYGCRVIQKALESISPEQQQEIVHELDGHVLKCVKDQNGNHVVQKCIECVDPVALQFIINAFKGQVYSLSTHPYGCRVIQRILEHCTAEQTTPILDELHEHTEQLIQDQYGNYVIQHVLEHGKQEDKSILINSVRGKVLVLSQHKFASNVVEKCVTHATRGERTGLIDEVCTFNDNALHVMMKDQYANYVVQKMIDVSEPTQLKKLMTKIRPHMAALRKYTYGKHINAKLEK
# assay_name: ITC
Below, each of the binders is paired with its reported pKd value.
Here pKd is given on a logarithmic scale as minus log10 of the concentration in mol/L.

| binder | pKd |
| --- | --- |
| UUGUUGUCGAAAAU (ssRNA) [NRE2 minus BoxB] | 6.00 |

From here, focus on the item given below.
Return reported pKd; argument: UGUACAUA (ssRNA) [BoxB] 8.18

Hello, the source for this data is paper PMC8421216, in case you need it.
